target: Trx-6×His-BCL6 (human BCL6 BTB domain covering amino-acid sequence 5-129) (Homo sapiens, UniProt P41182); construct: made in house; assay: HTRF assay (BCL6 / BCOR peptide); format: binding; settings: 1 nM Trx-6×His-BCL6, 300 nM BCOR-AF633 peptide, 2 hours incubation at room temperature; read-out: HTRF avg pIC50 (converted)
Exam item: assign TRUE to entries whose IC50 is below 4 nM and FALSE to entries at or above 4 nM. Note that a value of exactly 4 nM receives FALSE.

Q. Does this compound meet the criterion IC50 < 4 nM? CCNC(=O)[C@@H]1C[C@H](C)CN(c2ncc(Cl)c(Nc3ccc4c(c3)c3c(c(=O)n4C)OCC(F)(F)[C@H](C4CC4)N3)n2)C1 (racemic)
A. TRUE

Q. Does this compound meet the criterion IC50 < 4 nM? CC1CCN1c1ncc(Cl)c(Nc2ccc3c(c2)c2c(c(=O)n3C)OCC(F)(F)[C@H](C3CC3)N2)n1 (mixture of isomers)
A. FALSE

Q. Does this compound meet the criterion IC50 < 4 nM? Cn1c(=O)c2c(c3cc(Nc4nc(N5CCC(F)(F)C(CC(=O)N6CC(F)(F)C6)C5)ncc4Cl)ccc31)N[C@@H](C1CC1)C(F)(F)CO2 (mixture of isomers)
A. TRUE

Q. Does this compound meet the criterion IC50 < 4 nM? `CN(C)[C@@H]1CCCN(c2ncc(Cl)c(Nc3ccc4c(c3)c3c(c(=O)n4C)OCC(F)(F)[C@H](C4CC4)N3)n2)C1`
A. TRUE

Q. Does this compound meet the criterion IC50 < 4 nM? `Cn1c(=O)c2c(c3cc(Nc4nc(N5CCC(F)(F)CC5)ncc4F)ccc31)N[C@@H](C1CC1)C(F)(F)CO2`
A. FALSE

---

I'd be grateful if you could share measured IC50 for these entries.
molecular target: Trx-6×His-BCL6 (human BCL6 BTB domain covering amino-acid sequence 5-129) (Homo sapiens, UniProt P41182); construct: made in house; assay: HTRF assay (BCL6 / BCOR peptide); format: binding; conditions: 1 nM Trx-6×His-BCL6, 300 nM BCOR-AF633 peptide, 2 hours incubation at room temperature; read-out: HTRF avg pIC50 (converted)
Be sure to follow the number with its unit.

Per the record, CC1CCN(c2ncc(Cl)c(Nc3ccc4c(c3)c3c(c(=O)n4C)OCC(F)(F)[C@H](C4CC4)N3)n2)CC1C (mixture of isomers) [Example 12x07] has IC50 of 46.8 nM

Per the record, CCN(CC1CN(c2ncc(Cl)c(Nc3ccc4c(c3)c3c(c(=O)n4C)OCC(F)(F)[C@H](C4CC4)N3)n2)CCC1(F)F)C(C)=O (mixture of isomers) [Example 9k] has IC50 of 4.27 nM

Per the record, C[C@H]1CCN(c2ncc(Cl)c(Nc3ccc4c(c3)c3c(c(=O)n4C)OCC(F)(F)[C@H](C4CC4)N3)n2)C1 [Example 12x01] has IC50 of 26.9 nM

Per the record, Cn1c(=O)c2c(c3cc(Nc4nc(N5CCC[C@@H](O)C5)ncc4Cl)ccc31)N[C@@H](C1CC1)C(F)(F)CO2 [Example 1j] has IC50 of 2.95 nM

Per the record, CC1CC(CC(=O)N2CC(F)(F)C2)CN(c2ncc(Cl)c(Nc3ccc4c(c3)c3c(c(=O)n4C)OCC(F)(F)[C@H](C4CC4)N3)n2)C1 (single isomer, unassigned) [Example 12x17a] has IC50 of 3.98 nM

Per the record, C[C@H]1C[C@@H](O)CN(c2ncc(F)c(Nc3ccc4c(c3)c3c(c(=O)n4C)OCC(F)(F)[C@H](C4CC4)N3)n2)C1 [Example 2a] has IC50 of 2.4 nM

Value source: patent US12528826B2
